# assay_notes: Selectivity index, ratio of GI50 for human HeLa cells to MIC for active stage of Mycobacterium tuberculosis H37Ra ATCC 25177
# Type: toxicity, cell-based
# test_settings: read-out: Selectivity Index
Measured selectivity ratio by item
Reply with just the number.

Consider the reported selectivity ratio for these compounds:
Recorded result, COc1cc(-c2nc(SCCCn3cnc4sc5c(c4c3=O)CCCC5)n(S(=O)(=O)c3ccc(C)cc3)c(=O)c2C#N)cc(OC)c1OC , selectivity ratio: 2

Entry under test: Cc1ccc(-c2nc(S)nc(O)c2C#N)cc1 . Its selectivity ratio was 2

Form field selectivity ratio, entry CCCCCn1c(SCCCn2cnc3sc4c(c3c2=O)CCCC4)nc(-c2cc(OC)c(OC)c(OC)c2)c(C#N)c1=O : 2

For reference, reported selectivity ratio for CCCCCCc1cc2c(=O)n(CCSc3nc(-c4cc(OC)c(OC)c(OC)c4)c(C#N)c(=O)[nH]3)cnc2s1 stands at 5

***
The compound CCCCCCc1cc2c(=O)n(CCCSc3nc(-c4cc(OC)c(OC)c(OC)c4)c(C#N)c(=O)[nH]3)cnc2s1 showed selectivity ratio equal to 2

----------
# assay_notes: Selectivity index, ratio of GI50 for human A549 cells to MIC for active stage of Mycobacterium tuberculosis H37Ra ATCC 25177
# Type: toxicity
# test_settings: read-out: Selectivity Index
// values below are reported selectivity ratio
Lab note: record just the number, no unit beside it.

Some compounds with known selectivity ratio results, for comparison:
selectivity ratio reported for this compound Cc1ccc(-c2nc(S)nc(O)c2C#N)cc1 : 3

Per the records, this compound ( COc1cc(-c2nc(SCCCn3cnc4sc5c(c4c3=O)CCCC5)n(CCCn3cnc4sc5c(c4c3=O)CCCC5)c(=O)c2C#N)cc(OC)c1OC ) has selectivity ratio equal to 3

***
// recorded selectivity ratio for CCCCCCc1cc2c(=O)n(CCSc3nc(-c4cc(OC)c(OC)c(OC)c4)c(C#N)c(=O)[nH]3)cnc2s1 : 6

----------
# assay_notes: Selectivity index, ratio of GI50 for human PANC1 cells to MIC for dormant stage of Mycobacterium tuberculosis H37Ra ATCC 25177 infected in human THP1 cells
# Type: toxicity, cell-based
# test_settings: PANC-1 cells, read-out: Selectivity Index
Reported values of selectivity ratio for individual entries

In the examples that follow, each entry is paired with its recorded selectivity ratio.
# selectivity ratio of C#CCn1c(SCCCn2cnc3sc4c(c3c2=O)CCCC4)nc(-c2cc(OC)c(OC)c(OC)c2)c(C#N)c1=O = > 3

Given item CCCCCCCc1cc2c(=O)n(CCSc3nc(-c4cc(OC)c(OC)c(OC)c4)c(C#N)c(=O)[nH]3)cnc2s1 , the value recorded as its selectivity ratio is 5

# selectivity ratio of CCCCCc1cc2c(=O)n(CCCSc3nc(-c4cc(OC)c(OC)c(OC)c4)c(C#N)c(=O)[nH]3)cnc2s1 = > 7

Recorded result, CCCCCCc1cc2c(=O)n(CCSc3nc(-c4cc(OC)c(OC)c(OC)c4)c(C#N)c(=O)[nH]3)cnc2s1 , selectivity ratio: 2

Form field selectivity ratio, entry CCCCCCc1cc2c(=O)n(CCCSc3nc(-c4cc(OC)c(OC)c(OC)c4)c(C#N)c(=O)[nH]3)cnc2s1 : 4

***
The recorded selectivity ratio for CCCc1cc2c(=O)n(CCCSc3nc(-c4cc(OC)c(OC)c(OC)c4)c(C#N)c(=O)[nH]3)cnc2s1 is > 8

Memo: CCCCCCCCCCCn1c(SCCCn2cnc3sc4c(c3c2=O)CCCC4)nc(-c2cc(OC)c(OC)c(OC)c2)c(C#N)c1=O , reported selectivity ratio: > 3

# selectivity ratio of CCCCCCCCn1c(SCCCn2cnc3sc4c(c3c2=O)CCCC4)nc(-c2cc(OC)c(OC)c(OC)c2)c(C#N)c1=O = > 3

selectivity ratio in this record for COc1cc(-c2nc(SCCCn3cnc4sc5c(c4c3=O)CCCC5)n(S(=O)(=O)c3ccc(C)cc3)c(=O)c2C#N)cc(OC)c1OC : > 3

In plain terms, COc1cc(-c2nc(SCCCn3cnc4sc5c(c4c3=O)CCCC5)[nH]c(=O)c2C#N)cc(OC)c1OC has a documented selectivity ratio of 2

For record COc1cc(-c2[nH]c(=S)[nH]c(=O)c2C#N)cc(OC)c1OC the listed selectivity ratio is > 9

Please fill in: selectivity ratio reported for CCCCCCCc1cc2c(=O)n(CCCSc3nc(-c4cc(OC)c(OC)c(OC)c4)c(C#N)c(=O)[nH]3)cnc2s1 = > 14

Sample CCCCCn1c(SCCCn2cnc3sc4c(c3c2=O)CCCC4)nc(-c2cc(OC)c(OC)c(OC)c2)c(C#N)c1=O ; selectivity ratio observed: > 3

----------
# assay_notes: Selectivity index, ratio of GI50 for human PANC1 cells to MIC for active stage of Mycobacterium tuberculosis H37Ra ATCC 25177
# Assay type: toxicity
# test_settings: PANC-1 cells, read-out: Selectivity Index
Measured selectivity ratio of individual entries

The compound listed as CCCCCc1cc2c(=O)n(CCCSc3nc(-c4cc(OC)c(OC)c(OC)c4)c(C#N)c(=O)[nH]3)cnc2s1 has a reported selectivity ratio of > 2

Documented selectivity ratio of CCCCCCc1cc2c(=O)n(CCSc3nc(-c4cc(OC)c(OC)c(OC)c4)c(C#N)c(=O)[nH]3)cnc2s1 : 2

N#Cc1c(-c2ccc(O)cc2)[nH]c(=S)[nH]c1=O has a reported selectivity ratio of 3

Data point: CCCCCCCCCCCn1c(SCCCn2cnc3sc4c(c3c2=O)CCCC4)nc(-c2cc(OC)c(OC)c(OC)c2)c(C#N)c1=O ; selectivity ratio = > 3

The recorded selectivity ratio for entry COc1cc(-c2nc(SCCCn3cnc4sc5c(c4c3=O)CCCC5)n(Cc3c(F)c(F)c(F)c(F)c3F)c(=O)c2C#N)cc(OC)c1OC equals > 3

According to the records, this compound COc1cc(-c2nc(SCCCn3cnc4sc5c(c4c3=O)CCCC5)n(CCCn3cnc4sc5c(c4c3=O)CCCC5)c(=O)c2C#N)cc(OC)c1OC displays selectivity ratio of > 3

----------
Reported selectivity ratio values follow for various compounds
# assay_notes: Selectivity index, ratio of GI50 for human A549 cells to MIC for dormant stage of Mycobacterium tuberculosis H37Ra ATCC 25177
# Type: toxicity
# test_settings: read-out: Selectivity Index
// print number alone

Record CO[C@H]1/C=C/O[C@@]2(C)Oc3c(C)c(O)c4c(O)c(c(/C=N/N5CCN(C)CC5)c(O)c4c3C2=O)NC(=O)/C(C)=C\C=C\[C@H](C)[C@H](O)[C@@H](C)[C@@H](O)[C@@H](C)[C@H](OC(C)=O)[C@@H]1C [RIFAMPIN] , field selectivity ratio: 208

The record that follows has no selectivity ratio shown yet.
Note to self: selectivity ratio recorded for COc1cc(-c2nc(SCCCn3cnc4sc5c(c4c3=O)CCCC5)[nH]c(=O)c2C#N)cc(OC)c1OC was 4

----------
Attribute: selectivity ratio
# assay_notes: Selectivity index, ratio of GI50 for human HeLa cells to MIC for dormant stage of Mycobacterium tuberculosis H37Ra ATCC 25177 infected in human THP1 cells
# Format: toxicity, cell-based
# test_settings: read-out: Selectivity Index
Enter the number alone.

get_value(item= CCCCCCCc1cc2c(=O)n(CCSc3nc(-c4cc(OC)c(OC)c(OC)c4)c(C#N)c(=O)[nH]3)cnc2s1 , readout=selectivity ratio) returns 6

Quick note, selectivity ratio for CCCCCc1cc2c(=O)n(CCCSc3nc(-c4cc(OC)c(OC)c(OC)c4)c(C#N)c(=O)[nH]3)cnc2s1 landed at 8

The compound Cc1ccc(-c2nc(S)nc(O)c2C#N)cc1 showed selectivity ratio equal to 2

Looking up CCCCCCCc1cc2c(=O)n(CCCSc3nc(-c4cc(OC)c(OC)c(OC)c4)c(C#N)c(=O)[nH]3)cnc2s1 , I found its selectivity ratio recorded as 11

Please fill in: selectivity ratio reported for COc1cc(-c2nc(SCCCn3cnc4sc5c(c4c3=O)CCCC5)n(Cc3ccccc3)c(=O)c2C#N)cc(OC)c1OC = 2

So for COc1cc(-c2nc(SCCCn3cnc4sc5c(c4c3=O)CCCC5)n(C)c(=O)c2C#N)cc(OC)c1OC , the logged selectivity ratio turned out to be 3

Reported selectivity ratio of CCCCCCc1cc2c(=O)n(CCSc3nc(-c4cc(OC)c(OC)c(OC)c4)c(C#N)c(=O)[nH]3)cnc2s1 : 4

compound CCCCCn1c(SCCCn2cnc3sc4c(c3c2=O)CCCC4)nc(-c2cc(OC)c(OC)c(OC)c2)c(C#N)c1=O , selectivity ratio observed: 2

----------
# assay_notes: Selectivity index, ratio of GI50 for human PANC1 cells to MIC for dormant stage of Mycobacterium tuberculosis H37Ra ATCC 25177
# Format: toxicity
# test_settings: PANC-1 cells, read-out: Selectivity Index
value_type: selectivity ratio

Some compounds with recorded selectivity ratio:
The compound identified as CCCCCn1c(SCCCn2cnc3sc4c(c3c2=O)CCCC4)nc(-c2cc(OC)c(OC)c(OC)c2)c(C#N)c1=O registered its selectivity ratio at > 3

Value of selectivity ratio reported for the compound CCCc1cc2c(=O)n(CCCSc3nc(-c4cc(OC)c(OC)c(OC)c4)c(C#N)c(=O)[nH]3)cnc2s1 is > 5

So, COc1cc(-c2nc(SCCCn3cnc4sc5c(c4c3=O)CCCC5)n(Cc3ccccc3)c(=O)c2C#N)cc(OC)c1OC ? Its selectivity ratio was 2

selectivity ratio measured on C#CCn1c(SCCCn2cnc3sc4c(c3c2=O)CCCC4)nc(-c2cc(OC)c(OC)c(OC)c2)c(C#N)c1=O = > 3

Per the record, COc1cc(-c2nc(SCCCn3cnc4sc5c(c4c3=O)CCCC5)n(Cc3c(F)c(F)c(F)c(F)c3F)c(=O)c2C#N)cc(OC)c1OC has selectivity ratio of > 4

COc1cc(-c2nc(SCCCn3cnc4sc5c(c4c3=O)CCCC5)[nH]c(=O)c2C#N)cc(OC)c1OC has a reported selectivity ratio of 2

Lab note: CCCCCCCCn1c(SCCCn2cnc3sc4c(c3c2=O)CCCC4)nc(-c2cc(OC)c(OC)c(OC)c2)c(C#N)c1=O gave selectivity ratio of > 3

Consider CCCCCCc1cc2c(=O)n(CCSc3nc(-c4cc(OC)c(OC)c(OC)c4)c(C#N)c(=O)[nH]3)cnc2s1 . Its measured selectivity ratio is 2

Continuing:
CCCCCc1cc2c(=O)n(CCCSc3nc(-c4cc(OC)c(OC)c(OC)c4)c(C#N)c(=O)[nH]3)cnc2s1 has a reported selectivity ratio of > 6

Measured selectivity ratio, COc1cc(-c2nc(SCCCn3cnc4sc5c(c4c3=O)CCCC5)n(C)c(=O)c2C#N)cc(OC)c1OC : 1

Given item CCCCCCCc1cc2c(=O)n(CCCSc3nc(-c4cc(OC)c(OC)c(OC)c4)c(C#N)c(=O)[nH]3)cnc2s1 , the value recorded as its selectivity ratio is > 13

Reported selectivity ratio for Cc1ccc(-c2nc(S)nc(O)c2C#N)cc1 was > 3

Lab note: CCCCCCCc1cc2c(=O)n(CCSc3nc(-c4cc(OC)c(OC)c(OC)c4)c(C#N)c(=O)[nH]3)cnc2s1 gave selectivity ratio of 4

Data point: CCCCCCc1cc2c(=O)n(CCCSc3nc(-c4cc(OC)c(OC)c(OC)c4)c(C#N)c(=O)[nH]3)cnc2s1 ; selectivity ratio = 3

selectivity ratio measured on COc1cc(-c2nc(SCCCn3cnc4sc5c(c4c3=O)CCCC5)n(S(=O)(=O)c3ccc(C)cc3)c(=O)c2C#N)cc(OC)c1OC = > 3

For record COc1cc(-c2nc(SCCCn3cnc4sc5c(c4c3=O)CCCC5)n(CCC(F)(F)C(F)(F)C(F)(F)C(F)(F)C(F)(F)C(F)(F)F)c(=O)c2C#N)cc(OC)c1OC the listed selectivity ratio is > 8
